Listed here: items and their measured MIC Range.
Tested on: Citrobacter freundii
Assay: MIC by NCCLS broth microdilution, 1100 Japanese clinical isolates 1997-1998
Type: cell-based
Conditions: Citrobacter freundii (n=39)

[
  {
    "molecule": "CO/N=C1\\CN(c2nc3c(cc2F)c(=O)c(C(=O)O)cn3C2CC2)CC1CN (racemic)",
    "MIC Range": "0.016 to 4 µg/mL"
  },
  {
    "molecule": "C[C@H]1COc2c(N3CCN(C)CC3)c(F)cc3c(=O)c(C(=O)O)cn1c23",
    "MIC Range": "0.016 to 1 µg/mL"
  },
  {
    "molecule": "C[C@@H]1CN(c2c(F)c(N)c3c(=O)c(C(=O)O)cn(C4CC4)c3c2F)C[C@H](C)N1",
    "MIC Range": "0.016 to 4 µg/mL"
  },
  {
    "molecule": "NC1CCN(c2nc3c(cc2F)c(=O)c(C(=O)O)cn3-c2ccc(F)cc2F)C1 (centres unmarked)",
    "MIC Range": "0.016 to 2 µg/mL"
  },
  {
    "molecule": "N[C@@H]1[C@H]2CN(c3nc4c(cc3F)c(=O)c(C(=O)O)cn4-c3ccc(F)cc3F)C[C@@H]12",
    "MIC Range": "≤0.008 to 4 µg/mL"
  }
]
